Form field: melting point (one value per entry).

For orientation, consider the following solved cases.
CCc1c(-c2nnc(SCc3ccc(OC)cc3)o2)[nH]c2ccc(Cl)cc12: 179 to 181 °C
Cc1c(-c2nnc(SCCCc3ccccc3)o2)[nH]c2ccc(Cl)cc12: 179 to 180 °C
CCc1c(-c2nnc(SCc3ccc(OC)cc3)o2)[nH]c2ccc(Br)cc12: 181 to 183 °C
Cc1c(-c2nnc(SCc3ccc(F)cc3)o2)[nH]c2ccc(Cl)cc12: 210 to 212 °C
CCc1c(-c2nnc(SCCc3ccccc3)o2)[nH]c2ccc(Br)cc12: 185 to 186 °C
Fc1ccc(Nc2nnc(-c3cc4cc(Cl)ccc4[nH]3)o2)cc1: 265 to 267 °C

Would you kindly share the measured melting point for `CCc1c(-c2nnc(Nc3ccccc3)o2)[nH]c2ccc(Br)cc12` ?
240 to 242 °C

Would you kindly share the measured melting point for `COc1ccc(CSc2nnc(-c3[nH]c4ccc(Cl)cc4c3C)o2)cc1` ?
210 to 212 °C

Would you kindly share the measured melting point for `CCc1c(-c2nnc(Nc3ccc(F)cc3)o2)[nH]c2ccc(Br)cc12` ?
243 to 245 °C

Would you kindly share the measured melting point for `c1ccc(CCSc2nnc(-c3cc4ccccc4[nH]3)o2)cc1` ?
184 to 186 °C
